B1: RAB11B (parent)
chain: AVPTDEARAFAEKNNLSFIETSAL

Variants of: B1
Assay: protein stability index of a GFP-peptide fusion (GPS, HEK-293T) (PSI 1-6); higher = more stable;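 also: lentivirally expressed fusions sorted by FACS into six bins by GFP to DsRed ratio, PSI derived from sequencing read proportions per bin multiplied by bin number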
Conditions: c terminus: a fixed tail appended
VALUE TYPE: protein stability index

>>> value_measured("AVPTDPARAFAEKNNLSFIETSAL [E6P]")
2.93
>>> value_measured("AVPTDEARAFAEKNNLSFIETWAL [S22W]")
2.91
>>> value_measured("AVGTDEARAFAEKNNLSFIETSAL [P3G]")
2.92
>>> value_measured("AVPTDEARAFAEKNNLTFIETSAL [S17T]")
2.93
>>> value_measured("AVPTDEARAFAEKNNLSFIATSAL [E20A]")
2.88
>>> value_measured("AVPTDEARAFAEKNNLSFIVTSAL [E20V]")
1.95
>>> value_measured("AVPTDEARAFAEKNNLSFIETSHL [A23H]")
2.62

// switching to the query variant
Req: For the variant AVRTDEARAFAEKNNLSFIETSAL [P3R] , what protein stability index is on record?
Resp: 2.1

Data origin: the supplement of paper PMC10567573
